So I've got a bunch of compounds here, and I need their growth values.
System: HL-60(TB) leukemia
assayExplanation: NCI-60 one-dose screen, 48 h (100 = growth as untreated, 0 = no growth, -100 = all killed)
conditions: 10 µM unless noted
Protocol: Growth inhibition of the HL-60(TB) human tumor cell line is measured as a screen for anti-cancer activity. Cells are grown in 96 well plates and exposed to the test compound for 48 hours. Compounds are tested at a single concentration, which is 10^-5 M for most compounds. The reported endpoint is percent growth (GI% or GIPRCNT), where numbers from 0 - 100% represent growth inhibition, and numbers from -100% - 0 represent cell death. For example, a value of 40 represents 60% growth inhibition. […]
The panel holds about 83,000 compounds, 20% with a hit somewhere; the sample as a whole holds those more often. Calls of active or inactive are those of the source. Rule for the calls: active = growth percent below 10; inactive = the rest.

Need growth for each of these compounds.
1. CC1(C)N=C(N)N=C(N)N1c1cccc(CCCCOc2ccccc2)c1
2. CCOC(=O)CNC(=O)C1(NC(=O)CNC(=O)OCc2ccccc2)CCCC1
3. COc1ccc2c(c1)C(CC(=O)NN)CCC2 (stereo not drawn)

13.6% (inactive)
87.5% (inactive)
113% (inactive)
